Test system: 966289-007-R4-J1-PDC complex spheroid viability;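 also: spheroids exposed to agents for one week before readout; percent viability relative to DMSO vehicle control wells as 100%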
Assay: Anticancer human tumor 966289-007-R4-J1-PDC patient-derived pancreatic adenocarcinoma cell line growth inhibition [RAS]
Details: second compound 0.3 µM; first compound 0.1 µM; active compounds read low
Excerpt: RAS pathway inhibitors in Combinations in Complex Spheroids A high-throughput screen of multi-cell type tumor spheroids was designed to identify active combinations of RAS pathway inhibitors and targeted small molecules. Complex spheroids include a stromal component modeled by human endothelial cells (HUVEC) and fibroblasts modeled by human mesenchymal stem cells (MSCs). […] Compounds. […] If the clinical Cmax for an agent had not been determined, the highest concentration tested was 10 microM. […]
Entries annotated with measured viability, T/C

{"COMPOUND": "CCN1CCN(Cc2ccc(Nc3ncc(F)c(-c4cc(F)c5nc(C)n(C(C)C)c5c4)n3)nc2)CC1 + CCn1c(-c2cccnc2C(C)OC)c2c3cc(ccc31)N1CCOC(CC(NC(=O)C(C(C)C)N(C)C(=O)C3(F)CCN(C(=O)C#CC(C)(C)N(C)C)CC3)C(=O)N3CCCC(N3)C(=O)OCC(C)(C)C2)C1", "SUBJECT_OF_TEST": "966289-007-R4-J1-PDC complex spheroid viability", "MEASUREMENT_UNIT": "%", "viability, T/C": 87.7}
{"COMPOUND": "CC(Nc1ccc2c(c1)OCCn1cc(N3C(=O)OCC3C(F)F)nc1-2)C(N)=O (stereo not drawn) + CCn1c(-c2cc(N3CCN(C)CC3)cnc2C(C)OC)c2c3cc(ccc31)-c1csc(n1)CC(NC(=O)C1CC1C)C(=O)N1CCCC(N1)C(=O)OCC(C)(C)C2", "SUBJECT_OF_TEST": "966289-007-R4-J1-PDC complex spheroid viability", "MEASUREMENT_UNIT": "%", "viability, T/C": 108}
{"COMPOUND": "C=CC(=O)N1CCN(c2nc(OCC3CCCN3C)nc3c(F)c(-c4nc(N)cc(C)c4C(F)(F)F)c(Cl)cc23)C(C)C1 (stereo not drawn) + CCn1c(-c2cc(N3CCN(C)CC3)cnc2C(C)OC)c2c3cc(ccc31)-c1csc(n1)CC(NC(=O)C1CC1C)C(=O)N1CCCC(N1)C(=O)OCC(C)(C)C2", "SUBJECT_OF_TEST": "966289-007-R4-J1-PDC complex spheroid viability", "MEASUREMENT_UNIT": "%", "viability, T/C": 97.8}
